System: iCell cardiomyocytes (human iPSC-derived cardiomyocytes)
Experiment: High-content imaging of cytotoxicity and mitochondrial integrity in iPSC-CMs
Format: cell-based
Details: Homo sapiens, Cardiomyocyte, 1.5 h, cardiomyocytes (cm), mii, 90 min; read-out: POD cm.mii.90min
Structures can show the parent of a compound that is named as a salt.
Please use satisfied for minimal effective concentration under 90 µM and not satisfied for everything else, ties included.

Observe how each entry below is paired with its result.
{"Compound": "O=S(=O)(O)Oc1ccc(-c2cccc(Cl)c2)cc1Cl [4-PCB 11 sulfate]", "Label": "not satisfied"}
{"Compound": "Clc1ccc(-c2ccccc2)cc1", "Label": "satisfied"}
{"Compound": "Oc1cc(Cl)c(-c2cc(Cl)ccc2Cl)cc1Cl", "Label": "satisfied"}
{"Compound": "O=S(=O)(O)Oc1cc(-c2ccccc2)ccc1Cl [3-PCB 3 sulfate]", "Label": "not satisfied"}

**Query** # TODO verify minimal effective concentration < 90 µM strictly for this compound: COc1ccc(-c2cccc(Cl)c2)cc1Cl
**Result** satisfied

---

Each entry below carries its recorded minimal effective concentration.
System: iCell endothelial cells (human iPSC-derived ECs)
Assay: Tube formation (tubulogenesis) assay in iCell endothelial cells, 18 h
Type: cell-based
Conditions: Homo sapiens, Endothelial cell, endothelial cells (endo), tube formation tta, 18 hr, read-out: POD endo.tta.18hr
Value expressed in µM; do not type the unit.

{"Compound": "Oc1ccccc1-c1ccc(Cl)cc1 [2'-OH-PCB 3]", "Numeric value": 29.9}
{"Compound": "Clc1cccc(-c2cccc(Cl)c2)c1 [PCB 11, 3,3′-Dichlorobiphenyl]", "Numeric value": 100}
{"Compound": "Clc1cc(Cl)c(-c2cc(Cl)c(Cl)cc2Cl)cc1Cl [PCB 153, 2,2′,4,4′,5,5′-hexachlorobiphenyl]", "Numeric value": 3.83}

# next compound below
**Query** // lookup minimal effective concentration for Clc1ccc(-c2cc(Cl)c(Cl)c(Cl)c2)cc1Cl [PCB 126, 3,3′,4,4′,5-pentachlorobiphenyl]
**Result** 25.7

---

Each entry below carries its recorded activity at 0.1 µM.
System: iCell endothelial cells (human iPSC-derived ECs)
Assay: Tube formation (tubulogenesis) assay in iCell endothelial cells, 18 h
Format: cell-based
Conditions: Homo sapiens, Endothelial cell, iPSC-EC tube formation, 18 hr, 0.10 µM, 0.00 µM control = 100.00, read-out: endo.ttl.18hr
Value expressed in %; do not type the unit.

Known results for molecules:
{"Molecule": "COc1ccc(-c2ccc(Cl)cc2)cc1 [4'-OMe PCB3]", "Uom": "%", "activity at 0.1 µM": 124}
{"Molecule": "Oc1ccc(O)c(-c2ccc(Cl)cc2)c1 [2',5'-DiOH PCB3]", "Uom": "%", "activity at 0.1 µM": 98.5}
{"Molecule": "COc1ccc(-c2cccc(Cl)c2)cc1Cl [4-OMe PCB11]", "Uom": "%", "activity at 0.1 µM": 137}
{"Molecule": "O=C1C=CC(=O)C(c2ccc(Cl)cc2)=C1 [4-Cl-BQ, 2-(4-Chlorophenyl)benzo-2,5-quinone]", "Uom": "%", "activity at 0.1 µM": 131}
{"Molecule": "Oc1cccc(-c2ccc(Cl)cc2)c1 [3'-OH PCB3]", "Uom": "%", "activity at 0.1 µM": 72.3}
{"Molecule": "Oc1ccc(-c2cccc(Cl)c2)cc1Cl [4-OH PCB11]", "Uom": "%", "activity at 0.1 µM": 135}

# next molecule below
**Query** // lookup activity at 0.1 µM for Clc1cccc(-c2cccc(Cl)c2)c1 [PCB11]
**Result** 116

---

Each entry below carries its recorded activity at 0.01 µM.
Test system: iCell cardiomyocytes (human iPSC-derived cardiomyocytes)
Assay: Intracellular Ca2+ flux / beating parameters in iCell cardiomyocytes (FLIPR tetra), 90 min or 24 h
Format: cell-based
Conditions: Homo sapiens, Cardiomyocyte, 1.5 h, 0.01 µM; 90min; 0.00 µM = 100.00; read-out: cm.decay.rise.90min
Structures can show the parent of a compound that is named as a salt.
Please format your answer as a value with the unit trailing.

Known results for molecules:
{"Molecule": "Clc1ccc(Cl)c(-c2cc(Cl)ccc2Cl)c1", "Result": "101%"}
{"Molecule": "O=S(=O)(O)Oc1cc(Cl)c(-c2cc(Cl)ccc2Cl)cc1Cl [4-yl PCB 52 sulfate]", "Result": "101%"}
{"Molecule": "Clc1ccc(Cl)c(-c2c(Cl)ccc(Cl)c2Cl)c1", "Result": "101%"}

# next molecule below
**Query** Return activity at 0.01 µM measured with iCell cardiomyocytes (human iPSC-derived cardiomyocytes) given this molecule: Oc1cc(Cl)c(-c2cc(Cl)ccc2Cl)cc1Cl
**Result** 98.4%

---

Test system: iCell cardiomyocytes (human iPSC-derived cardiomyocytes)
Experiment: Intracellular Ca2+ flux / beating parameters in iCell cardiomyocytes (FLIPR tetra), 90 min or 24 h
Format: cell-based
Settings: Homo sapiens, Cardiomyocyte, 24 h, 10.00 µM; 24hrs; 0.00 µM = 100.00; read-out: cm.amp.avg.24hrs
Structures can show the parent of a compound that is named as a salt.
Each entry below carries its recorded activity at 10 µM.
Value expressed in %; do not type the unit.

Known results for molecules:
{"Molecule": "Oc1cc(Cl)c(-c2cc(Cl)ccc2Cl)cc1Cl [4-OH PCB52]", "activity at 10 µM [%]": 80.2}
{"Molecule": "Clc1cc(Cl)c(-c2cc(Cl)c(Cl)cc2Cl)cc1Cl [PCB153]", "activity at 10 µM [%]": 122}
{"Molecule": "O=S(=O)(O)Oc1cc(Cl)c(-c2cc(Cl)ccc2Cl)cc1Cl [4-yl PCB 52 sulfate]", "activity at 10 µM [%]": 167}

# next molecule below
**Query** Return activity at 10 µM measured with iCell cardiomyocytes (human iPSC-derived cardiomyocytes) given this molecule: COc1cc(Cl)c(-c2cc(Cl)ccc2Cl)cc1Cl [4-OMe PCB52]
**Result** 138

---

Tested on: iCell endothelial cells (human iPSC-derived ECs)
Assay: High-content imaging cytotoxicity in iCell endothelial cells, 24 h
Format: cell-based
Details: Homo sapiens, Endothelial cell, iPSC-EC, 24 hr, top concentration 100.00 µM, read-out: endo.tc.24hrs POD
Structures can show the parent of a compound that is named as a salt.
Measured endpoint: minimal effective concentration

Known results for compounds:
{"Compound": "Clc1ccc(Cl)c(-c2cc(Cl)ccc2Cl)c1", "Measured endpoint": "minimal effective concentration", "Result": "100 µM"}
{"Compound": "Clc1cccc(-c2cccc(Cl)c2)c1", "Measured endpoint": "minimal effective concentration", "Result": "100 µM"}
{"Compound": "COc1ccc(-c2cccc(Cl)c2)cc1Cl", "Measured endpoint": "minimal effective concentration", "Result": "100 µM"}
{"Compound": "O=S(=O)(O)Oc1cccc(-c2ccc(Cl)cc2)c1 [3'-yl PCB 3 sulfate]", "Measured endpoint": "minimal effective concentration", "Result": "100 µM"}
{"Compound": "O=S(=O)(O)Oc1ccc(-c2cccc(Cl)c2)cc1Cl [4-yl PCB 11 sulfate]", "Measured endpoint": "minimal effective concentration", "Result": "100 µM"}
{"Compound": "COc1ccc(-c2ccc(Cl)cc2)cc1", "Measured endpoint": "minimal effective concentration", "Result": "100 µM"}
{"Compound": "O=S(=O)(O)Oc1cc(Cl)c(-c2cc(Cl)ccc2Cl)cc1Cl [4-yl PCB 52 sulfate]", "Measured endpoint": "minimal effective concentration", "Result": "50.3 µM"}
{"Compound": "Clc1ccc(-c2ccccc2)cc1", "Measured endpoint": "minimal effective concentration", "Result": "100 µM"}
{"Compound": "Oc1ccc(-c2ccc(Cl)cc2)cc1", "Measured endpoint": "minimal effective concentration", "Result": "52 µM"}
{"Compound": "Oc1cc(Cl)cc(-c2cccc(Cl)c2)c1", "Measured endpoint": "minimal effective concentration", "Result": "43.2 µM"}

**Query** // lookup minimal effective concentration for O=C1C=CC(=O)C(c2ccc(Cl)cc2)=C1
**Result** 2.56 µM

---

Each entry below carries its recorded activity at 100 µM.
System: iCell cardiomyocytes (human iPSC-derived cardiomyocytes)
Experiment: Intracellular Ca2+ flux / beating parameters in iCell cardiomyocytes (FLIPR tetra), 90 min or 24 h
Assay type: cell-based
Conditions: Homo sapiens, Cardiomyocyte, 24 h, 100.00 µM; 0.00 µM = 100.00; read-out: cm.spacing.cv.24hrs
Structures can show the parent of a compound that is named as a salt.
Value expressed in %; do not type the unit.

Known results for molecules:
{"Molecule": "Oc1ccc(-c2ccc(Cl)cc2)cc1 [4'-OH PCB3]", "Numeric value": 0}
{"Molecule": "O=S(=O)(O)Oc1ccc(-c2ccc(Cl)cc2)cc1 [4'-yl PCB 3 sulfate]", "Numeric value": 103}
{"Molecule": "Clc1cccc(-c2cccc(Cl)c2)c1 [PCB11]", "Numeric value": 0}
{"Molecule": "Oc1cccc(-c2ccc(Cl)cc2)c1 [3'-OH PCB3]", "Numeric value": 0}

**Query** Return activity at 100 µM measured with iCell cardiomyocytes (human iPSC-derived cardiomyocytes) given this molecule: O=C1C=CC(=O)C(c2ccc(Cl)cc2)=C1 [4-Cl-BQ, 2-(4-Chlorophenyl)benzo-2,5-quinone]
**Result** 0

**Query** Next record, please: O=S(=O)(O)Oc1cc(Cl)ccc1-c1ccccc1 [2-yl PCB 3 sulfate]
**Result** 86.6

**Query** Next record, please: COc1ccc(-c2cccc(Cl)c2)cc1Cl [4-OMe PCB11]
**Result** 0
